Measured log10 vapour pressure (mmHg) values are reported for all entries that follow.
Answer with a bare number; do not write a unit.

Compound | log10 vapour pressure (mmHg)
CCCCCCCCn1sccc1=O | -4.43
Clc1cccc2ccccc12 | -1.54
CCCCCCCCCCF | -0.203
C[Si](C)(C)O[Si](C)(C)O[Si](C)(C)O[Si](C)(C)O[Si](C)(C)O[Si](C)(C)O[Si](C)(C)C | -2.5
CC(=O)Nc1ccccc1 | -3.7
CCOC(=O)C1CC(=O)C(=C(O)C2CC2)C(=O)C1 (stereo unspecified) | -4.79
ClC1=C(Cl)[C@]2(Cl)[C@@H]3[C@@H]4C[C@@H]([C@H]5O[C@@H]45)[C@@H]3[C@@]1(Cl)C2(Cl)Cl (single isomer, unassigned) | -5.38
CCOC(=O)CC(SP(=S)(OC)OC)C(=O)OCC (stereo unspecified) | -5.47
C1CSC1 | 1.72
CCCC1COC(Cn2cncn2)(c2ccc(Cl)cc2Cl)O1 (stereo unspecified) | -6.38

Reported log10 vapour pressure (mmHg) for "Nc1ncnc2[nH]cnc12" : what is it?
-10.4

Reported log10 vapour pressure (mmHg) for "CCCCCCCCCCCCCCc1ccccc1" : what is it?
-4.62

Reported log10 vapour pressure (mmHg) for "Nc1ccc2ccccc2c1" : what is it?
-3.59

Reported log10 vapour pressure (mmHg) for "O=C1CCC(=O)O1" : what is it?
-2.82

Reported log10 vapour pressure (mmHg) for "COC(=O)CC#N" : what is it?
-0.86

Reported log10 vapour pressure (mmHg) for "CC(C)(C#N)C#N" : what is it?
0.16

Reported log10 vapour pressure (mmHg) for "OC(c1ccc(Cl)cc1)(c1ccc(Cl)cc1)C(Cl)(Cl)Cl" : what is it?
-6.4
